Reference source for all entries: patent US7396837B2

test system: SK-BR-3; assay: SRB colorimetric cell growth inhibition assay, SK-BR-3; assay type: cell-based; conditions: Homo sapiens, SK-BR-3, SK-BR-3; cell killing (cytotoxic effect); read-out: LC50 SK-BR-3
Assign classes using reported CC50 values and the ranges lower: < 6 µM; middle: ≥ 6 µM and < 10 µM; upper: ≥ 10 µM, please.

Solved cases below.
COMPOUND: COc1cc(-c2c3n(c4c(=O)oc5cc(OC(=O)CCc6ccccc6)c(OC)cc5c24)CCc2cc(OC(=O)CCc4ccccc4)c(OC)cc2-3)ccc1OC(=O)CCc1ccccc1 [Compound 11]
STUDY_TARGET: SK-BR-3
DISCRETE_LABEL: middle
//
COMPOUND: COc1cc(-c2c3c4cc(OC)c(OC(=O)[C@@H](N)CC(C)C)cc4oc(=O)c3n3ccc4cc(OC(=O)[C@@H](N)CC(C)C)c(OC)cc4c23)ccc1OC(=O)[C@@H](N)CC(C)C [Compound 181]
STUDY_TARGET: SK-BR-3
DISCRETE_LABEL: lower
//
COMPOUND: COc1cc2c(cc1O)oc(=O)c1c2c(-c2cccc([N+](=O)[O-])c2)c2c3cc(OC)c(O)cc3ccn21 [Compound 221]
STUDY_TARGET: SK-BR-3
DISCRETE_LABEL: upper

Please look at the following compound next.
// query Classify this compound: COc1cc(-c2c3c4cc(OC)c(OC(=O)[C@H](C)N)cc4oc(=O)c3n3ccc4cc(OC(=O)[C@H](C)N)c(OC)cc4c23)ccc1OC(=O)[C@H](C)N [Compound 199]
// result middle

* * *

tested on: LoVo; assay: SRB colorimetric cell growth inhibition assay, LoVo; format: cell-based; conditions: Homo sapiens, LoVo; total growth inhibition (cytostatic effect); read-out: TGI LOVO
IC (TGI) overview
Give the quantity in µM, number only.

INPUT_SMILES: COc1cc2ccn3c(c(-c4ccc(OS(=O)(=O)C(F)(F)F)c(OC)c4)c4c5cc(OC)c(OS(=O)(=O)C(F)(F)F)cc5oc(=O)c43)c2cc1OC
IC (TGI) / µM: 5.68

INPUT_SMILES: COc1cc(-c2c3c4cc(OC)c(O)cc4oc(=O)c3n3ccc4cc(OC)c(OC)cc4c23)ccc1O
IC (TGI) / µM: 10

INPUT_SMILES: COc1cc2c(cc1O)CCn1c-2c(Br)c2c3cc(OC)c(O)cc3oc(=O)c21
IC (TGI) / µM: 21.8

Next compound, please.
// query Return reported IC (TGI); argument: COc1cc2c(cc1O)CCn1c-2cc2c3cc(OC)c(O)cc3oc(=O)c21
// result 3.53

* * *

tested on: A-549; test: SRB colorimetric cell growth inhibition assay, A-549; assay type: cell-based; details: Homo sapiens, A549, A-549; cell killing (cytotoxic effect); read-out: LC50 A-549
PROPERTY_MEASURED: CC50 (µM)
Write down the numeric answer in µM and omit the unit.

Below, 4 molecules whose answers are already recorded.
INPUT_SMILES: COc1cc(-c2c3c4cc(OC)c(OC(=O)[C@@H](N)Cc5ccccc5)cc4oc(=O)c3n3ccc4c(OC(=O)[C@@H](N)Cc5ccccc5)c(OC)c(OC)cc4c23)ccc1OC(=O)[C@@H](N)Cc1ccccc1
OBS_VALUE: 3.55
//
INPUT_SMILES: COc1cc(-c2c3c4cc(OC)c(O)cc4oc(=O)c3n3ccc4c(N)cccc4c23)ccc1O
OBS_VALUE: 21.3
//
INPUT_SMILES: COc1cc(-c2c3n(c4c(=O)oc5cc(OC(=O)[C@H](C)N)c(OC)cc5c24)CCc2c-3cc(OC)c(OC)c2OC(=O)[C@H](C)N)ccc1OC(=O)[C@H](C)N
OBS_VALUE: 9.2
//
INPUT_SMILES: COc1cc(-c2c3n(c4c(=O)oc5cc(OC(=O)CCc6ccccc6)c(OC)cc5c24)CCc2cc(OC(=O)CCc4ccccc4)c(OC)cc2-3)ccc1OC(=O)CCc1ccccc1
OBS_VALUE: 11.1

# context switch: different molecule, same CC50
// query So what does the record say about CC50 for COc1cc2ccn3c(c(-c4ccc(OC(=O)[C@H](C)N)c(OC)c4)c4c5cc(OC)c(OC(=O)[C@H](C)N)cc5oc(=O)c43)c2cc1OC ?
// result 15.3
